Quick reference for MIC among some molecules
# System: Phanerochaete chrysosporium
# TEST SUMMARY: 6-well plate assay, minimal inhibitory concentration
# Assay type: cell-based
# STATED CONDITIONS: Phanerodontia chrysosporium, 168 h; 6-well agar plate; lowest concentration with no growth after seven days; read-out: Effectiveness at Inhibiting Wood-Rotting Fungi, WR3 (minimal inhibitory concentration)

{"columns": ["MOLECULE", "MIC"],
 "data": [
  ["CC(Cc1ccc(C(C)(C)C)cc1)CN1C[C@@H](C)O[C@@H](C)C1 (stereo partly shown)", "1 to 100 µg/mL"],
  ["Nc1nc(=O)[nH]cc1F", "> 100 µg/mL"],
  ["C[Si](Cn1cncn1)(c1ccc(F)cc1)c1ccc(F)cc1", "1 to 100 µg/mL"],
  ["CCCCNC(=O)n1c(NC(=O)OC)nc2ccccc21", "1 to 100 µg/mL"],
  ["CC(C)(C)C(O)(CCc1ccc(Cl)cc1)Cn1cncn1 (stereo not shown)", "< 1 µg/mL"],
  ["CON=C(C(=O)OC)c1ccccc1CON=C(C)c1cccc(C(F)(F)F)c1", "> 100 µg/mL"],
  ["COC(=O)Nc1nc2ccccc2[nH]1", "1 to 100 µg/mL"],
  ["O=[N+]([O-])c1cc(C(F)(F)F)c(Cl)c([N+](=O)[O-])c1Nc1ncc(C(F)(F)F)cc1Cl", "1 to 100 µg/mL"],
  ["c1ccc2[nH]c(-c3cscn3)nc2c1", "> 100 µg/mL"],
  ["CCCC1COC(Cn2cncn2)(c2ccc(Cl)cc2Cl)O1 (stereo not shown)", "< 1 µg/mL"]
]}

* * *

# Tested on: Irpex lacteus
# TEST SUMMARY: 6-well plate assay, minimal inhibitory concentration
# Assay type: cell-based
# STATED CONDITIONS: Irpex lacteus, 168 h, read-out: Effectiveness at Inhibiting Wood-Rotting Fungi, WR2 (minimal inhibitory concentration)

{"columns": ["MOLECULE", "TESTED SYSTEM", "MIC"],
 "data": [
  ["O=[N+]([O-])c1c(Cl)c(Cl)c(Cl)c(Cl)c1Cl [Pentachloronitrobenzene]", "Irpex lacteus", "> 100 mg/L"],
  ["Oc1cccc2cccnc12 [8-Hydroxyquinoline]", "Irpex lacteus", "1 to 100 mg/L"],
  ["CCCN(CCOc1c(Cl)cc(Cl)cc1Cl)C(=O)n1ccnc1 [Prochloraz]", "Irpex lacteus", "1 to 100 mg/L"],
  ["CC1=C(C(=O)Nc2ccccc2)SCCO1 [Carboxin]", "Irpex lacteus", "< 1 mg/L"]
]}

* * *

# Tested on: Trametes versicolor
# TEST SUMMARY: 6-well plate assay, minimal inhibitory concentration
# Format: cell-based
# STATED CONDITIONS: Trametes versicolor, 168 h, read-out: Effectiveness at Inhibiting Wood-Rotting Fungi, WR1 (minimal inhibitory concentration)

{"columns": ["MOLECULE", "MIC"],
 "data": [
  ["CC1=C(C(=O)Nc2ccccc2)SCCO1", "< 1 µg/mL"],
  ["Oc1cccc2cccnc12 [8-Hydroxyquinoline]", "1 to 100 µg/mL"],
  ["O=[N+]([O-])c1c(Cl)c(Cl)c(Cl)c(Cl)c1Cl", "> 100 µg/mL"],
  ["CCCN(CCOc1c(Cl)cc(Cl)cc1Cl)C(=O)n1ccnc1", "1 to 100 µg/mL"]
]}
